The measurements presented in this section are drawn from patent US7855205B2.

- Test system: A375 malignant melanoma
- experiment_description: Inhibition of cell proliferation (14C-thymidine incorporation), A375
- Format: cell-based, human
- measurement_conditions: Homo sapiens, A-375
reported_property: IC50 (µM)
Give bare numbers, in µM.

Recorded results for 5 molecules are shown here.
# molecule, IC50, µM
rows = [
    ("CN(C)CCc1ccc(Nc2nccc(-c3c[nH]c4ncccc34)n2)c(Cl)c1", 0.215),
    ("Clc1ccc(Nc2nccc(-c3c[nH]c4ncccc34)n2)cc1", 0.97),
    ("CN(C)CCc1ccc(Nc2nccc(-c3c[nH]c4ncccc34)n2)cc1", 0.024),
    ("CC1CCC(Nc2nccc(-c3c[nH]c4ncccc34)n2)CC1 (mixture of isomers)", 0.014),
    ("c1cnc2[nH]cc(-c3ccnc(NC4CCOCC4)n3)c2c1", 0.0417),
]

Provide IC50 values for the following items, in order.
1. Cc1ccc(Nc2nccc(-c3c[nH]c4ncccc34)n2)cc1
2. COc1ccc(Nc2nccc(-c3c[nH]c4ncccc34)n2)cc1
3. Cc1cc(O)ccc1Nc1nccc(-c2c[nH]c3ncccc23)n1
4. Cc1cccc(Nc2nccc(-c3c[nH]c4ncccc34)n2)c1C
5. CN(C)CCn1cc(-c2ccnc(NC3CCCCC3)n2)c2cccnc21

Resp:
0.25
0.05
0.00858
0.0157
7.69
